Test system: U2OS
Test: cell viability relative to DMSO; higher = less toxic
Conditions: 72 h; 10 nM
Collected cell viability values appear next to each entry.
The reply should be a number in %, with the unit left off.

>  <compound>
Cc1ccc(S(=O)(=O)OCC(=O)Nc2ccc(C(=O)O)c(O)c2)cc1 [STAT3-inhibitor-VI]

>  <unit string>
%

>  <number>
96

$$$$

Entry Cc1cc(Nc2ncnc3ccc(-c4ccc(CNCCS(C)(=O)=O)o4)cc23)ccc1Oc1ccn2ncnc2c1 [HER2-Inhibitor-1] : reported cell viability = ?
95.2

And then CCCC[P+](CCCC)(CCCC)Cc1ccc(NC(=O)[C@H](Cc2ccc3ccccc3c2)N/C(=N/C2CCCCC2)NC2CCCCC2)cc1 , what is it?
99.7

And then Cc1ncc[nH]1 [2-methylimidazole] , what is it?
97.4

And then Nc1ccc(C(=O)O)c(O)c1 [aminosalicylate] , what is it?
101

And then CC1(C)CN2C(CS/C(=N\C3CCCCC3)NC3CCCCC3)=CSC2=N1 [IT1t] , what is it?
95.8

And then CCC(=O)c1cc(-c2ccc(Cl)cc2)n(-c2ccc(S(N)(=O)=O)cc2)c1C , what is it?
99.6

And then COc1cc([C@@H]2c3cc4c(cc3[C@@H](O[C@@H]3O[C@@H]5CO[C@@H](C)O[C@H]5[C@H](O)[C@H]3O)[C@H]3COC(=O)[C@H]23)OCO4)cc(OC)c1OP(=O)(O)O [etoposide-phosphate] , what is it?
104

And then CC1=C(/C=C/C(C)=C/C=C/C(C)=C/C=C/C=C(C)/C=C/C=C(C)/C=C/C2=C(C)C(=O)[C@@H](O)CC2(C)C)C(C)(C)C[C@H](O)C1=O [astaxanthin] , what is it?
104

And then CCN(CC)Cc1cc(Nc2ccnc3cc(Cl)ccc23)ccc1O [amodiaquine] , what is it?
101

And then O=C(N[C@H]1CCN(C(=O)c2cc(C(F)(F)F)cc(C(F)(F)F)c2)[C@H](Cc2ccc(Cl)cc2)C1)c1ccnc2ccccc12 [AV-608] , what is it?
98.8

And then COC(=O)N1CCN(Cc2cccc(NC(=O)Nc3ccc(C)nc3)c2F)CC1 [omecamtiv-mecarbil] , what is it?
101

And then COc1ccc2[nH]c([S+]([O-])Cc3ncc(C)c(OC)c3C)nc2c1 (stereo unspecified) [omeprazole-magnesium] , what is it?
97.3

And then CO[C@@H]1[C@H](O)[C@@H](CO)O[C@H]1n1cnc2c(NC3CCCCC3)ncnc21 [SDZ-WAG-994] , what is it?
100

And then CC[C@@H](C)CNCC(=O)N1CCc2sccc2[C@@H]1COc1cccc(C)c1 [RU-SKI-43] , what is it?
98.1

And then C[C@H]1c2cccc(O)c2C(=O)C2=C(O)[C@]3(O)C(=O)C(C(N)=O)=C(O)[C@@H](N(C)C)[C@@H]3[C@@H](O)[C@@H]21 [doxycycline] , what is it?
98.8

---

Test system: HepG2
Assay: cell viability relative to DMSO; higher = less toxic
Details: 72 h; 10 nM
measurement kind: cell viability (%)
The reply should be a number in %, with the unit left off.

>  <compound>
Cc1noc(NS(=O)(=O)c2cccc3c(N(C)C)cccc23)c1C

>  <unit string>
%

>  <number>
96

$$$$

Field: cell viability (HepG2). Entry: CNc1ncnc2c1ncn2[C@@H]1O[C@H](CO)[C@@H](O)[C@H]1O
108

And then NC1CCN(c2nc3c(cc2F)c(=O)c(C(=O)O)cn3-c2ccc(F)cc2F)C1 (centres undefined) , what is it?
87.6

And then CC1(C)CCC2=C(O1)c1ccccc1C(=O)C2=O , what is it?
99.3

And then COc1ccc(N(C)c2nc(C)nc3ccccc23)cc1 , what is it?
52.4

---

Test system: Calu-3
Test: drug sensitivity score (DSS) for viability; higher = more toxic; extreme values may be limits of the assay
Details: 72 h
Collected drug sensitivity score values appear next to each entry.
Returns: the value as a bare number; no unit string appended.

Here are 5 molecules together with their reported answers.
>  <molecule>
COc1cc(Br)c(S(=O)(=O)Nc2ccc(C(F)(F)F)c(O[C@@H]3CCN(C)C3)c2)cc1OC

>  <drug sensitivity score>
0

$$$$
>  <molecule>
CC(C)(C)c1ccc(C(O)CCCN2CCC(C(O)(c3ccccc3)c3ccccc3)CC2)cc1 (stereo not drawn)

>  <drug sensitivity score>
0

$$$$
>  <molecule>
NCCNCCNCCN

>  <drug sensitivity score>
0

$$$$
>  <molecule>
CCN(CC)CCOC(=O)C1(C2CCCCC2)CCCCC1

>  <drug sensitivity score>
0

$$$$
>  <molecule>
O=C(N[C@H]1CCN(C(=O)c2cc(C(F)(F)F)cc(C(F)(F)F)c2)[C@H](Cc2ccc(Cl)cc2)C1)c1ccnc2ccccc12

>  <drug sensitivity score>
0

$$$$

Pending molecule:
Entry NC(=O)c1ccccc1O [salicylamide] : reported drug sensitivity score = ?
0

---

System: A549-ACE2 infected with SARS-CoV-2
Test: morphology score (similarity to uninfected cells); higher = more like uninfected cells
Details: 3 µM; 24 h
measurement kind: morphology score
Returns: the value as a bare number; no unit string appended.

>  <compound smiles>
Nc1nc(N)c(N=O)c(OCC2CCCCC2)n1

>  <number>
0.59

$$$$
>  <compound smiles>
COc1ccc2cc1Oc1ccc(cc1)C[C@H]1c3c(cc4c(c3Oc3cc5c(cc3OC)CCN(C)[C@@H]5C2)OCO4)CCN1C

>  <number>
0.53

$$$$
>  <compound smiles>
CC[C@@H](C)CNCC(=O)N1CCc2sccc2[C@@H]1COc1cccc(C)c1

>  <number>
0.65

$$$$

Pending compound:
Entry Clc1ccc(N/N=C(\c2ccccc2)c2ccccn2)nc1 : reported morphology score = ?
0.28

---

System: Vero E6
Assay: cell viability relative to DMSO; higher = less toxic
Conditions: 72 h; 1000 nM
measurement kind: cell viability (%)
The reply should be a number in %, with the unit left off.

>  <molecule>
CCN(c1ccccc1)c1cc(=NC)n(C)c(C)n1 [ZD-7288]

>  <number>
102

$$$$
>  <molecule>
Cc1[nH]c(/C=C2\C(=O)Nc3ccccc32)c(C)c1CCC(=O)O [orantinib]

>  <number>
96.2

$$$$
>  <molecule>
C[C@@H](O)[C@H]1C(=O)N2C(C(=O)O)=C([C@H]3CCCO3)S[C@H]12 [faropenem]

>  <number>
96.8

$$$$
>  <molecule>
Cc1cccc(C)c1NC(=O)c1ccccc1C(=O)O [ftaxilide]

>  <number>
96.3

$$$$

Entry Clc1ccccc1CN1CCc2sccc2C1 [ticlopidine] : reported cell viability = ?
95.6

And then O=C(O)c1ccc(CN2CCC(CN[C@@H]3C[C@H]3c3ccccc3)CC2)cc1 , what is it?
90.9

And then Cc1ccc2c(=O)c3ccccc3n(CCCN)c2c1C , what is it?
57

And then C=C(C)CN1CC[C@]23c4c5ccc(O)c4O[C@H]2c2[nH]c4ccccc4c2C[C@@]3(O)C1C5 [SDM25N] , what is it?
96.6

And then Nc1nc(OCc2ccccc2)c2nc[nH]c2n1 [O6-benzylguanine] , what is it?
103

And then C[N+](C)(C)CC(O)CC(=O)[O-] (stereo unspecified) [carnitine-(D/L)] , what is it?
106

And then C=CC(C)(C)c1cc(/C=C/C(=O)c2ccc(O)cc2)c(OC)cc1O [licochalcone-A] , what is it?
98

And then CCOC(=O)[C@@H](C)Oc1cccc2c(=O)n(CC(=O)Nc3ccc4c(c3)OCCO4)ccc12 , what is it?
98.5

And then NCCCC[C@H](NC(=O)[C@@H]1CCCN1C(=O)[C@@H]1CSSC[C@H](NC(=O)CNC(=O)CNC(=O)CN)C(=O)N[C@@H](Cc2ccc(O)cc2)C(=O)N[C@@H](Cc2ccccc2)C(=O)N[C@@H](CCC(N)=O)C(=O)N[C@@H](CC(N)=O)C(=O)N1)C(=O)NCC(N)=O [terlipressin] , what is it?
91.2

And then COc1cc(C)nc(-n2nc(C)cc2OC)n1 [epirizole] , what is it?
105

And then COc1ccc(C(=O)c2c(C)n(CCN3CCOCC3)c3ccccc23)cc1 [pravadoline] , what is it?
100

And then Nc1nc(N)c(N=O)c(OCC2CCCCC2)n1 [NU-6027] , what is it?
95

And then O=C(N[C@@H](Cc1c[nH]c2ccccc12)C(=O)O)c1ccc(Cl)cc1 [benzotript] , what is it?
102

And then CC(=O)[C@H]1CC[C@H]2[C@@H]3CCC4=CC(=O)CC[C@]4(C)[C@H]3CC[C@]12C [progesterone] , what is it?
96.8

And then CN(C)c1ccc(C(=O)NCCCCCCC(=O)NO)cc1 [M-344] , what is it?
56

And then O=C1COc2nccc(-c3ccccc3F)c2CN1Cc1cc(C(F)(F)F)cc(C(F)(F)F)c1 [GPBAR-A] , what is it?
101

And then CC[C@@H](C)CNCC(=O)N1CCc2sccc2[C@@H]1COc1cccc(C)c1 [RU-SKI-43] , what is it?
98.3

And then COc1cc2c(cc1OC)CN(CCc1ccc(NC(=O)c3cc(OC)c(OC)cc3NC(=O)c3cnc4ccccc4c3)cc1)CC2 [tariquidar] , what is it?
96.4

And then CN(C)CC(c1ccc(O)cc1)C1(O)CCCCC1 (stereo unspecified) [desvenlafaxine] , what is it?
92.6

And then COc1cc2c(Nc3ccc(NC(=O)c4ccccc4)cc3)ncnc2cc1OCCCN1CCOCC1 , what is it?
97.3

And then N[C@@H](C(=O)O)c1ccc(C(=O)O)c(O)c1 (racemic) [4-carboxy-3-hydroxyphenylglycine-(RS)] , what is it?
102
